B1: CPEB3 Ribozyme (parent)
chain: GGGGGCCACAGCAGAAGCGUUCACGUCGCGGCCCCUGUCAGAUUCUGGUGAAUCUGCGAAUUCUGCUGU

- Variants of: B1
- methodDescription: self-cleavage, relative activity (ratio to wild type); higher = more cleavage; co-transcriptional
measuredProperty: self-cleavage

>  <variantDescriptor>
A42G U49G

>  <measuredProperty>
self-cleavage

>  <observedResult>
0.96

$$$$
>  <variantDescriptor>
A15U C57G

>  <measuredProperty>
self-cleavage

>  <observedResult>
0.259

$$$$
>  <variantDescriptor>
G11A A23C

>  <measuredProperty>
self-cleavage

>  <observedResult>
0.775

$$$$
>  <variantDescriptor>
A15C U69C

>  <measuredProperty>
self-cleavage

>  <observedResult>
0.978

$$$$
>  <variantDescriptor>
G2U A60C

>  <measuredProperty>
self-cleavage

>  <observedResult>
0.0553

$$$$
>  <variantDescriptor>
C6A A60G

>  <measuredProperty>
self-cleavage

>  <observedResult>
0.326

$$$$
>  <variantDescriptor>
C45U G48C

>  <measuredProperty>
self-cleavage

>  <observedResult>
0.975

$$$$
>  <variantDescriptor>
A8G G14C

>  <measuredProperty>
self-cleavage

>  <observedResult>
0.125

$$$$
>  <variantDescriptor>
A15C G17U

>  <measuredProperty>
self-cleavage

>  <observedResult>
0.25

$$$$
>  <variantDescriptor>
C33U U69C

>  <measuredProperty>
self-cleavage

>  <observedResult>
1.05

$$$$
>  <variantDescriptor>
G48A G56A

>  <measuredProperty>
self-cleavage

>  <observedResult>
0.992

$$$$
>  <variantDescriptor>
G5U U64G

>  <measuredProperty>
self-cleavage

>  <observedResult>
0.194

$$$$
>  <variantDescriptor>
G3A U67G

>  <measuredProperty>
self-cleavage

>  <observedResult>
0.818

$$$$
>  <variantDescriptor>
G1U G65C

>  <measuredProperty>
self-cleavage

>  <observedResult>
0.0555

$$$$
>  <variantDescriptor>
G3A A40G

>  <measuredProperty>
self-cleavage

>  <observedResult>
0.455

$$$$
>  <variantDescriptor>
U36G U43A

>  <measuredProperty>
self-cleavage

>  <observedResult>
0.26

$$$$
>  <variantDescriptor>
C29U U67G

>  <measuredProperty>
self-cleavage

>  <observedResult>
0.359

$$$$
>  <variantDescriptor>
C35U G56A

>  <measuredProperty>
self-cleavage

>  <observedResult>
0.819

$$$$
>  <variantDescriptor>
U49G A52C

>  <measuredProperty>
self-cleavage

>  <observedResult>
0.952

$$$$
>  <variantDescriptor>
G19C G56C

>  <measuredProperty>
self-cleavage

>  <observedResult>
0.169

$$$$
>  <variantDescriptor>
C12G G28A

>  <measuredProperty>
self-cleavage

>  <observedResult>
0.163

$$$$
>  <variantDescriptor>
G14C U64G

>  <measuredProperty>
self-cleavage

>  <observedResult>
0.546

$$$$

// provenance: the RNAGym collection of RNA variant scans (doi:10.7554/elife.80360)
